Where do these numbers come from? They come from patent US11034725B2.

system.tested: PCSK9Δhelix (Homo sapiens)
Construct: Human PCSK9 construct M1-Q692 with an engineered TEV site (residue deletion Y166, R167); made in house; host or cells: CHO
Sequence (Q8NBP7 with tags, fused parts or gaps limits assumed): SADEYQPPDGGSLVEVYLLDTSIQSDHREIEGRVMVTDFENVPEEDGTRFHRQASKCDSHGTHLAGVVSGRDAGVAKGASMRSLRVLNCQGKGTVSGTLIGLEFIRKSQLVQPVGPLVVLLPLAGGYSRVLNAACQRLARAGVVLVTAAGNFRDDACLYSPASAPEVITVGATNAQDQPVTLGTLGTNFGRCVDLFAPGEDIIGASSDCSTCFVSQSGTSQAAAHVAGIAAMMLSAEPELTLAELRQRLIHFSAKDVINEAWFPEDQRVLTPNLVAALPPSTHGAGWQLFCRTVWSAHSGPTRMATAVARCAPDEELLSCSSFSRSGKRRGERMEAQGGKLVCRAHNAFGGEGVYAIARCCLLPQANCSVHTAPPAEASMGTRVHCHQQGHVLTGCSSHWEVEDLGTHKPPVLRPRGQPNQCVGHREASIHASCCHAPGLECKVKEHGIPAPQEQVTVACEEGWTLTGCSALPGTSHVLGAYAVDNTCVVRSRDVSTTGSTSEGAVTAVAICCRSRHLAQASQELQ
Sequence (Q8NBP7 31-152 partner limits assumed): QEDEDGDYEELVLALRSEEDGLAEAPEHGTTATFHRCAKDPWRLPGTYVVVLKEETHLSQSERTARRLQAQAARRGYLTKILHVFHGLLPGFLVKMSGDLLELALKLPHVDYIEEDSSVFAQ
assay.text: PCSK9Δhelix/Ab20 TR-FRET binding assay
recorded.conditions: TR-FRET; Table 8E, additional compounds; read-out: PCSK9Δhelix/Ab20 IC50
pIC50: −log10 of the molar value. Square brackets hold non-standard residues; d marks the D form. Peptide text beside a SMILES is read from it. * marks the point of attachment. Propanoyl(3-(4-F-phenyl)) = O=C(CCc1ccc(F)cc1)*; Trp(6-F) = N[C@@H](Cc1c[nH]c2cc(F)ccc12)C(=O)O; Dihydrocaffeoyl = O=C(CCc1ccc(O)c(O)c1)*; Butanoyl(4-Ph) = O=C(CCCc1ccccc1)*; X45 = CC(=O)c1ccc(OCCCC(=O)*)cc1; hArg = N=C(N)NCCCC[C@H](N)C(=O)O; X24 = CN1CCC(n2cc(C(=O)*)cn2)C1; X13 = O=C(CCN1CCS(=O)(=O)CC1)*; X29 = Nc1ccc(CCC(=O)*)cc1; Pentanoyl = CCCCC(=O)*
Respond with yes (1) for pIC50 values of 6 and above, no (0) for values below.

- molecule: "CC[C@H](C)[C@H](NC(=O)[C@H](CCCCNC(=N)N)NC(=O)[C@@H](NC(=O)[C@H](CC(C)C)NC(=O)[C@H](CC(N)=O)NC(=O)[C@H](Cc1c[nH]c2ccccc12)NC(=O)CNC(=O)[C@@H]1CCCN1C(=O)[C@H](Cc1ccc(O)cc1)NC(=O)[C@H](CO)NC(=O)[C@H](CC(=O)O)NC(C)=O)C(C)C)C(=O)NCC(=O)N[C@@H](CC(C)C)C(=O)N[C@@H](CC(C)C)C(=O)N[C@@H](CCCNC(=N)N)C(N)=O [Compound 230] (Ac-DSYPGWNLV[hArg]IGLLR-NH2)"
  label: "no (0)"
- molecule: "CC[C@H](C)[C@H](NC(=O)[C@H](CCCNC(=N)N)NC(=O)[C@@H](NC(=O)[C@H](CC(C)C)NC(=O)[C@H](CC(N)=O)NC(=O)[C@H](Cc1c[nH]c2ccccc12)NC(=O)CCN1CCS(=O)(=O)CC1)C(C)C)C(=O)NCC(=O)N[C@@H](CC(C)C)C(=O)N[C@@H](CC(C)C)C(=O)N[C@@H](CCCNC(=N)N)C(N)=O [Compound 126] (X13-WNLVRIGLLR-NH2)"
  label: "no (0)"

input: Test whether the molecule CC[C@H](C)[C@H](NC(=O)[C@H](CCCNC(=N)N)NC(=O)[C@@H](NC(=O)[C@H](CC(C)C)NC(=O)[C@H](CC(N)=O)NC(=O)[C@H](Cc1c[nH]c2ccccc12)NC(=O)c1cnn(C2CCN(C)C2)c1)C(C)C)C(=O)NCC(=O)N[C@@H](CC(C)C)C(=O)N[C@@H](CC(C)C)C(=O)N[C@@H](CCCNC(=N)N)C(N)=O (stereo partly shown) [Compound 129] (X24-WNLVRIGLLR-NH2) records pIC50 of 6 or higher.
output: no (0)

input: And for CC[C@H](C)[C@H](NC(=O)[C@H](CCCNC(=N)N)NC(=O)[C@@H](NC(=O)[C@H](CC(C)C)NC(=O)[C@H](CC(N)=O)NC(=O)[C@H](Cc1c[nH]c2ccccc12)NC(=O)CCCOc1ccc(C(C)=O)cc1)C(C)C)C(=O)NCC(=O)N[C@@H](CC(C)C)C(=O)N[C@H](C(=O)N[C@@H](CCCNC(=N)N)C(N)=O)[C@@H](C)O [Compound 183] (X45-WNLVRIGLTR-NH2) ?
output: no (0)

input: Similarly, CC[C@H](C)[C@H](NC(=O)[C@H](CCCCNC(=N)N)NC(=O)[C@@H](NC(=O)[C@H](CC(C)C)NC(=O)[C@H](CC(N)=O)NC(=O)[C@H](Cc1c[nH]c2ccccc12)NC(=O)CCCc1ccccc1)C(C)C)C(=O)NCC(=O)N[C@@H](CC(C)C)C(=O)N[C@@H](CC(C)C)C(=O)N[C@@H](CCCNC(=N)N)C(N)=O [Compound 212] ({Butanoyl(4-Ph)}-WNLV[hArg]IGLLR-NH2) ?
output: no (0)

input: Let us now turn to CC[C@H](C)[C@H](NC(=O)[C@H](CCCCNC(=N)N)NC(=O)[C@@H](NC(=O)[C@H](CC(C)C)NC(=O)[C@H](CC(N)=O)NC(=O)[C@H](Cc1c[nH]c2ccccc12)NC(=O)CCc1ccc(N)cc1)C(C)C)C(=O)NCC(=O)N[C@@H](CC(C)C)C(=O)N[C@@H](CC(C)C)C(=O)N[C@@H](CCCNC(=N)N)C(N)=O [Compound 218] (X29-WNLV[hArg]IGLLR-NH2)
output: yes (1)

input: Also CC[C@H](C)[C@H](NC(=O)[C@H](CCCCNC(=N)N)NC(=O)[C@@H](NC(=O)[C@H](CC(C)C)NC(=O)[C@H](CC(N)=O)NC(=O)[C@H](Cc1c[nH]c2ccccc12)NC(=O)CCc1ccc(F)cc1)C(C)C)C(=O)NCC(=O)N[C@@H](CC(C)C)C(=O)N[C@@H](CC(C)C)C(=O)N[C@@H](CCCNC(=N)N)C(N)=O [Compound 198] ({Propanoyl(3-(4-F-phenyl))}-WNLV[hArg]IGLLR-NH2) ?
output: yes (1)

input: Do the same for CCCCC(=O)N[C@@H](Cc1c[nH]c2cc(F)ccc12)C(=O)N[C@@H](CC(N)=O)C(=O)N[C@@H](CC(C)C)C(=O)N[C@H](C(=O)N[C@@H](CCCNC(=N)N)C(=O)N[C@H](C(=O)NCC(=O)N[C@@H](CC(C)C)C(=O)N[C@H](C(=O)N[C@@H](CCCNC(=N)N)C(N)=O)[C@@H](C)O)[C@@H](C)CC)C(C)C [Compound 174] (Pentanoyl-[Trp(6-F)]NLVRIGLTR-NH2) please
output: no (0)

input: Another molecule: CC[C@H](C)[C@H](NC(=O)[C@H](CCCCNC(=N)N)NC(=O)[C@@H](NC(=O)[C@H](CC(C)C)NC(=O)[C@H](CC(N)=O)NC(=O)[C@H](Cc1c[nH]c2ccccc12)NC(=O)CCc1ccc(O)c(O)c1)C(C)C)C(=O)NCC(=O)N[C@@H](CC(C)C)C(=O)N[C@@H](CC(C)C)C(=O)N[C@@H](CCCNC(=N)N)C(N)=O [Compound 224] (Dihydrocaffeoyl-WNLV[hArg]IGLLR-NH2)
output: yes (1)
